compounds and their reported Percent Growth
test system: HL-60(TB); conditions: Log10 Concentration −8.0
The reply should contain only the number, in %.

Guide cases for Percent Growth, answers given:
C=C1C(=O)O[C@H]2[C@H]1CC/C(COC(=O)NCCN1CCOCC1)=C\CC[C@@]1(C)O[C@@H]21	100
C=C1C(=O)O[C@H]2[C@H]1CC/C(COC(=O)CCC(=O)N1CCC(C)CC1)=C\CC[C@@]1(C)O[C@@H]21	110

Exercise: GET /values?readout=Percent Growth&item= `C=C1C(=O)O[C@H]2[C@H]1CC/C(COC(=O)NCCCCCCO)=C\CC[C@@]1(C)O[C@@H]21`
Key: 115

Exercise: Further, for `C=C1C(=O)O[C@H]2[C@H]1CC/C(COC(=O)CCC(=O)NCc1ccc(Cl)nc1)=C\CC[C@@]1(C)O[C@@H]21` ?
Key: 91

Exercise: Further, for `C=C1C(=O)O[C@H]2[C@H]1CC/C(COC(=O)OCCCN1CCCCC1)=C\CC[C@@]1(C)O[C@@H]21` ?
Key: 93

Exercise: Further, for `C=C1C(=O)O[C@H]2[C@H]1CC/C(COC(=O)NCCN1CCCC1)=C\CC[C@@]1(C)O[C@@H]21` ?
Key: 88

Exercise: Further, for `C=C1C(=O)O[C@H]2[C@H]1CC/C(COC(=O)OC)=C\CC[C@@]1(C)O[C@@H]21` ?
Key: 97

Exercise: Further, for `C=C1C(=O)O[C@H]2[C@H]1CC/C(COC(=O)N1CCC(F)(F)CC1)=C\CC[C@@]1(C)O[C@@H]21` ?
Key: 97

Exercise: Further, for `C=C1C(=O)O[C@H]2[C@H]1CC/C(COC(=O)N1CCN(C)CC1)=C\CC[C@@]1(C)O[C@@H]21` ?
Key: 102
